Biological target: UniProtKB P29322
Sequence (P29322 28-1005): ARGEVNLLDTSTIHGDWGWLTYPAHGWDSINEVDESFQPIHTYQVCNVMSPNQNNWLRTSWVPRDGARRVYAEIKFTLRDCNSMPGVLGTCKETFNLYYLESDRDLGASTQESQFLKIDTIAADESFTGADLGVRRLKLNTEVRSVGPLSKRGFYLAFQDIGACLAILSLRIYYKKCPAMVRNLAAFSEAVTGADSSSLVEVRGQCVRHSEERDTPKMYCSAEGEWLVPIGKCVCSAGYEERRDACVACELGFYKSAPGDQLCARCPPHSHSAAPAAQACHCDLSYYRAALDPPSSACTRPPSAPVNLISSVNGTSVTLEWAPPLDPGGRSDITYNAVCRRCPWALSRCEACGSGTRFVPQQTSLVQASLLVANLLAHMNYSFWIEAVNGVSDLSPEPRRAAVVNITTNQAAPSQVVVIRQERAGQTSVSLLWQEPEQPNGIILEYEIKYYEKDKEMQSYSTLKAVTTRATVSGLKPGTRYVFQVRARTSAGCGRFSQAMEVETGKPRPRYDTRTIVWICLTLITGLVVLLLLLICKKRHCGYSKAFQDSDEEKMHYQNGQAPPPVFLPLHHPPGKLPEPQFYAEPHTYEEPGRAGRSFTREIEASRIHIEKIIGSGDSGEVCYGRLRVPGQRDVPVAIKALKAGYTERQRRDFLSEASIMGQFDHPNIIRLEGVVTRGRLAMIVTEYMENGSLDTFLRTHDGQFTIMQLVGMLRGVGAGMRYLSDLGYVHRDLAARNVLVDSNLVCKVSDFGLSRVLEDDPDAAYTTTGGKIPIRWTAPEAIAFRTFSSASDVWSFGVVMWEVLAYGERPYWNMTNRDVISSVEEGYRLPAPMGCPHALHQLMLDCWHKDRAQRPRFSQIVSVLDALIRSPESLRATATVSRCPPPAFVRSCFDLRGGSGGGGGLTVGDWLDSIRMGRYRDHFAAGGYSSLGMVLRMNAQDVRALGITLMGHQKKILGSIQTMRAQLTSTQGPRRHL
Assay: SelectScreen Z′-LYTE kinase assay
Format: biochemical
Procedure: The kinase selectivity profile of BST-4 was performed by the SelectScreen kinase profiling service (Thermo Fisher Scientific). Kinase selectivity assay was performed using Z′-LYTE ™ screening protocol kit. […] The Fluorescence intensity per well was read using a fluorescence plate reader. […] The dose response curve was curve fit to model number 205 (sigmoidal dose-response model) and inhibition rates were calculated. […] IC50 values were calculated based on curve fitting.
pIC50: −log10 of the molar value.
RECORDED_ENDPOINT: pIC50

Name the reported pIC50 value associated with the compound CCS(=O)(=O)Cc1cnc(Oc2c(F)cc(F)cc2OCCCCOc2ccc(/C=C/c3cc(OC)cc(OC)c3)cc2)c(-c2cc(C)c3c(=O)[nH]ccn23)c1 < 5.00
